Reference source for all entries: the supplement of paper PMC10307832

Items are presented alongside their recorded relative viability.
Tested on: NCI-H1975
experimental protocol: relative viability (nuclei count vs DMSO), 5 days (fraction); higher = more cells survive
setup conditions: first compound 0.4 µM
The answer should be written as a number, with no unit following it.

compound: Cc1sc2c(c1C)C(c1ccc(Cl)cc1)=N[C@@H](CC(=O)OC(C)(C)C)c1nnc(C)n1-2 [JQ1] + CC1(C)CCC(c2ccc(Cl)cc2)=C(CN2CCN(c3ccc(C(=O)NS(=O)(=O)c4ccc(N[C@H](CCN5CCOCC5)CSc5ccccc5)c(S(=O)(=O)C(F)(F)F)c4)cc3)CC2)C1 [Navitoclax] (partner 0.5 µM)
relative viability: 0.821

Could you share what relative viability was measured for Cc1sc2c(c1C)C(c1ccc(Cl)cc1)=N[C@@H](CC(=O)OC(C)(C)C)c1nnc(C)n1-2 [JQ1] + Cc1cc(Nc2cc(N3CCN(C)CC3)nc(Sc3ccc(NC(=O)C4CC4)cc3)n2)n[nH]1 [Tozasertib] (partner 0.1 µM) , tested on NCI-H1975?
0.487

Field: relative viability (NCI-H1975). Entry: Cc1sc2c(c1C)C(c1ccc(Cl)cc1)=N[C@@H](CC(=O)OC(C)(C)C)c1nnc(C)n1-2 [JQ1] + NC(=O)Nc1cc(-c2cccc(F)c2)sc1C(=O)N[C@H]1CCCNC1 [AZD7762] (partner 0.2 µM)
0.767

Test system NCI-H1975; read-out relative viability; what value for Cc1sc2c(c1C)C(c1ccc(Cl)cc1)=N[C@@H](CC(=O)OC(C)(C)C)c1nnc(C)n1-2 [JQ1] + CC(C)C[C@H](NC(=O)[C@H](Cc1ccccc1)NC(=O)c1cnccn1)B(O)O [Bortezomib] (partner 0.002 µM) ?
0.317

* * *

System: 201T
experimental protocol: relative viability (nuclei count vs DMSO), 5 days (fraction); higher = more cells survive
setup conditions: first compound 1.265 µM
# Lookup of reported relative viability keyed by entry

compound: Cc1sc2c(c1C)C(c1ccc(Cl)cc1)=N[C@@H](CC(=O)OC(C)(C)C)c1nnc(C)n1-2 [JQ1] + CC1(C)CCC(c2ccc(Cl)cc2)=C(CN2CCN(c3ccc(C(=O)NS(=O)(=O)c4ccc(N[C@H](CCN5CCOCC5)CSc5ccccc5)c(S(=O)(=O)C(F)(F)F)c4)cc3)CC2)C1 [Navitoclax] (partner 0.5 µM)
system under test: 201T
value observed: 0.842

Requested field: relative viability. Item: Cc1sc2c(c1C)C(c1ccc(Cl)cc1)=N[C@@H](CC(=O)OC(C)(C)C)c1nnc(C)n1-2 [JQ1] + Cc1nc(NC(=O)N2CCC[C@H]2C(N)=O)sc1-c1ccnc(C(C)(C)C(F)(F)F)c1 [Alpelisib] (partner 2 µM)
0.715

Reported relative viability for Cc1sc2c(c1C)C(c1ccc(Cl)cc1)=N[C@@H](CC(=O)OC(C)(C)C)c1nnc(C)n1-2 [JQ1] + N=C(N)NC(=N)NCCc1ccccc1 [Phenformin] (partner 250 µM) : what is it?
0.377

Looking for the measured relative viability of Cc1sc2c(c1C)C(c1ccc(Cl)cc1)=N[C@@H](CC(=O)OC(C)(C)C)c1nnc(C)n1-2 [JQ1] + CC(=O)Nc1cccc(-n2c(=O)n(C3CC3)c(=O)c3c(Nc4ccc(I)cc4F)n(C)c(=O)c(C)c32)c1 [Trametinib] (partner 0.02 µM) , can you help?
0.505
